These entries and their values trace back to paper PMC7181051.

# key: entry, value: pIC50
target: ATRXADD (Homo sapiens, UniProt P46100); construct: The pGEX-GP-2-ATRX ADD plasmid (Addgene plasmid #59698) [17] was transformed into BL21 cells for expression and purification; GST (N, cleaved yes); peptides GenScript #59698; host or cells: E. coli BL21; test: Fluorescence polarization (FP) displacement assay; type: binding; details: disruption of H3_1-15K9me3-FAM (0.75 µM):ATRXADD (5 µM) PPI, PBS; highest concentration tested 100 µM; ND = no displacement; read-out: FP Assay IC50
Sequence (P46100 159-296 limits assumed): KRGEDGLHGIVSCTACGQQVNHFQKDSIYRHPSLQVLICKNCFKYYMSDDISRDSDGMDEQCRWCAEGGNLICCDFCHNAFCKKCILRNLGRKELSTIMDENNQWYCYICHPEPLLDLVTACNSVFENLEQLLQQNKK
pIC50: −log10 of the molar value. Where a SMILES comes first, the peptide text is derived from it. [ ]: non-standard residue; d: D form. Lys(Me3) = C[N+](C)(C)CCCC[C@H](N)C(=O)O

molecule="C[C@H](NC(=O)[C@@H](NC(=O)[C@H](CCC(N)=O)NC(=O)[C@H](CCCC[N+](C)(C)C)NC(=O)[C@@H](N)[C@@H](C)O)[C@@H](C)O)C(=O)N[C@@H](CCCNC(=N)N)C(=O)N[C@@H](CCCC[N+](C)(C)C)C(=O)N[C@@H](CO)C(=O)O [H3_3-10K4me3K9me3] (H-T[Lys(Me3)]QTAR[Lys(Me3)]S-OH; N-terminus and C-terminus assumed)" quantity_kind=pIC50 assay_result="< 4.00"
molecule="C[C@@H](O)[C@H](N)C(=O)N[C@@H](CCCCN)C(=O)N[C@@H](CCC(N)=O)C(=O)O [Peptide H3_3-5] (H-Thr-Lys-Gln-OH; N-terminus and C-terminus assumed)" quantity_kind=pIC50 assay_result="< 4.00"
molecule="C[C@H](NC(=O)[C@@H](NC(=O)[C@H](CCC(N)=O)NC(=O)[C@H](CCCCN)NC(=O)[C@@H](N)[C@@H](C)O)[C@@H](C)O)C(=O)N[C@@H](CCCNC(=N)N)C(=O)N[C@@H](CCCC[N+](C)(C)C)C(=O)N[C@@H](CO)C(=O)N[C@H](C(=O)O)[C@@H](C)O [Peptide H3_3-11K9me3] (H-TKQTAR[Lys(Me3)]ST-OH; N-terminus and C-terminus assumed)" quantity_kind=pIC50 assay_result="< 4.00"

Let us move to another entry and its pIC50.
Prompt: Could you share which pIC50 value was measured for C[C@H](N)C(=O)N[C@@H](CCCNC(=N)N)C(=O)N[C@H](C(=O)N[C@@H](CCCC[N+](C)(C)C)C(=O)N[C@@H](CCC(N)=O)C(=O)N[C@H](C(=O)N[C@@H](C)C(=O)N[C@@H](CCCNC(=N)N)C(=O)N[C@@H](CCCC[N+](C)(C)C)C(=O)N[C@@H](CO)C(=O)N[C@H](C(=O)O)[C@@H](C)O)[C@@H](C)O)[C@@H](C)O ?
Completion: ≤ 4.00
